Test: total protein half-life in vivo (active degradation + dilution); higher = more stable protein
Settings: E. coli NCM3722 delta-hslV; growth: N-lim chemostat; doubling time 6 h
Reported metric: total protein half-life in vivo (h)
Answer format: numeric, h implied, no suffix.

Below: 5 sequences and their reported total protein half-life in vivo.
MSKRYFVTGTDTEVGKTVASCALLQAAKAAGYRTAGYKPVASGSEKTPEGLRNSDALALQRNSSLQLDYATVNPYTFAEPTSPHIISAQEGRPIESLVMSAGLRALEQQADWVLVEGAGGWFTPLSDTFTFADWVTQEQLPVILVVGVKLGCINHAMLTAQVIQHAGLTLAGWVANDVTPPGKRHAEYMTTLTRMIPAPLLGEIPWLAENPENAATGKYINLALL
4.33
MAIALVTGGSRGIGRATALLLAQEGYTVAVNYQQNLHAAQEVMNLITQAGGKAFVLQADISDENQVVAMFTAIDQHDEPLAALVNNAGILFTQCTVENLTAERINRVLSTNVTGYFLCCREAVKRMALKNGGSGGAIVNVSSVASRLGSPGEYVDYAASKGAIDTLTTGLSLEVAAQGIRVNCVRPGFIYTEMHASGGEPGRVDRVKSNIPMQRGGQAEEVAQAIVWLLSDKASYVTGSFIDLAGGK
5.67
MMYHIPGVLSPQDVARFREQLEQAEWVDGRVTTGAQGAQVKNNQQVDTRSTLYAALQNEVLNAVNQHALFFAAALPRTLSTPLFNRYQNNETYGFHVDGAVRSHPQNGWMRTDLSATLFLSDPQSYDGGELVVNDTFGQHRVKLPAGDLVLYPSSSLHCVTPVTRGVRVASFMWIQSMIRDDKKRAMLFELDNNIQSLKSRYGESEEILSLLNLYHNLLREWSEI
2.86
MRTTSFAKVAALCGLLALSGCASKITQPDKYSGFLNNYSDLKETTSATGKPVLRWVDPSFDQSKYDSIVWNPITYYPVPKPSTQVGQKVLDKILNYTNTEMKEAIAQRKPLVTTAGPRSLIFRGAITGVDTSKEGLQFYEVVPVALVVAGTQMATGHRTMDTRLYFEGELIDAATNKPVIKVVRQGEGKDLNNESTPMAFENIKQVIDDMATDATMFDVNKK
6.47
MKLAVYSTKQYDKKYLQQVNESFGFELEFFDFLLTEKTAKTANGCEAVCIFVNDDGSRPVLEELKKHGVKYIALRCAGFNNVDLDAAKELGLKVVRVPAYDPEAVAEHAIGMMMTLNRRIHRAYQRTRDANFSLEGLTGFTMYGKTAGVIGTGKIGVAMLRILKGFGMRLLAFDPYPSAAALELGVEYVDLPTLFSESDVISLHCPLTPENYHLLNEAAFEQMKNGVMIVNTSRGALIDSQAAIEALKNQKIGSLGMDVYENERDLFFEDKSNDVIQDDVFRRLSACHNVLFTGHQAFLTAEALTSISQTTLQNLSNLEKGETCPNELV
4.53

Next, consider the following sequence.
Quick one: total protein half-life in vivo of MRRTFIKKEGVVITTLARYLLGEKCGNRLKTIDELANECRSSVGLTQAALKTLESSGAIRIERRGRNGSYLVEMDNKALLTHVDINNVVCAMPLPYTRLYEGLASGLKAQFDGIPFYYAHMRGADIRVECLLNGVYDMAVVSRLAAESYLTQKGLCLALELGPHTYVGEHQLICRKGESANVKRVGLDNRSADQKIMTDVFFGGSDVERVDLSYHESLQRIVKGDVDAVIWNVVAENELTMLGLEATPLTDDPRFLQATEAVVLTRVDDYPMQQLLRAVVDKHALLAHQQRVVSGEQEPSY ?
5.34
